Cited source: patent US9884876B2

// reported EC50 per item
Test system: Influenza A virus Udorn/72
assay.notes: microbe, parasite or virus in culture
Assay type: cell-based
condition.notes: Influenza A virus, MDCK; Table 7; read-out: FLU EC50
Write it as a number; the unit nM goes unstated.

structure.notation	test.target	readout.number
O=C(Nc1nc2ccc3scnc3c2s1)c1ccc2ccccc2c1	Influenza A virus Udorn/72	2000
O=C(Nc1nc2ccc3scnc3c2o1)c1ccc2ccccc2c1	Influenza A virus Udorn/72	1300

Attention now shifts to the item below.
Read off the recorded EC50 for `Cc1nc2c(ccc3nc(NC(=O)c4cccc(Br)c4)oc32)s1` 6000

---

Test system: Dengue virus type 4 (DV4)
assay.notes: In vitro activity against Dengue virus type 4
Type: cell-based
condition.notes: Table 7, read-out: DNV4 EC50
Criterion: EC50 strictly less than 3 µM. Met: Met. Not met: Not met.

Record excerpt, results attached:
structure.notation	category
Cc1nc2c(ccc3nc(NC(=O)c4cccc(Br)c4)oc32)s1	Met
O=C(Nc1nc2ccc3scnc3c2s1)c1ccc2ccccc2c1	Not met
O=C(Nc1nc2ccc(C(=O)N3CCCC3)cc2s1)c1ccc2ccccc2c1	Not met
O=C(Nc1nc2ccc(S(=O)(=O)N3CCCCC3)cc2s1)c1ccc2ccccc2c1	Not met

Is the reported EC50 for `Cc1nc2c(ccc3nc(NC(=O)c4cccc(Br)c4)sc32)s1` strictly below 3 µM? Met

Is the reported EC50 for `O=C(Nc1nc2ccc3scnc3c2o1)c1cccc(Br)c1` strictly below 3 µM? Met

---

Tested on: Dengue virus type 4 (DV4)
assay.notes: In vitro activity against Dengue virus type 4
Type: cell-based
condition.notes: calculated IC50
// reported log10(IC50) per item
Form field - Quantity: IC50; Unit: nM; Scale: log10

structure.notation	readout.number
O=C(Nc1nc2ccc3scnc3c2o1)c1ccc2cc(OCCN3CCOCC3)ccc2c1	3.81
O=C(Nc1nc2ccc(-c3nc4ccccc4[nH]3)cc2s1)c1ccc2ccccc2c1	1.48

Read off the recorded log10(IC50) for `Cc1nc2c(ccc3nc(NC(=O)c4cccc(Br)c4)oc32)s1` 2.89

Read off the recorded log10(IC50) for `O=C(Nc1nc2ccc3scnc3c2o1)c1cccc(Br)c1` 1.30

Read off the recorded log10(IC50) for `Cc1nc(-c2ccc3nc(NC(=O)c4ccc5ccccc5c4)sc3c2)cs1` 2.43

Read off the recorded log10(IC50) for `CC(C)(C)Oc1ccc2nc(NC(=O)c3ccc4ccccc4c3)sc2c1` 3.67

Read off the recorded log10(IC50) for `O=C(Nc1nc2ccc3scnc3c2s1)c1ccc2cc(OCCN3CCOCC3)ccc2c1` 3.69

Read off the recorded log10(IC50) for `O=C(Nc1nc2ccc(S(=O)(=O)N3CCCCC3)cc2s1)c1ccc2ccccc2c1` 3.27

Read off the recorded log10(IC50) for `O=C(Nc1ccc2nc(NC(=O)c3ccc4ccccc4c3)sc2c1)c1ccccc1` 2.18

---

Test system: Dengue virus type 4 (DV4)
assay.notes: In vitro activity against Dengue virus type 4
Assay type: cell-based
condition.notes: Table 7, read-out: DNV4 EC50
// reported EC50 per item
Write it as a number; the unit µM goes unstated.

Observe how each entry below is paired with its result.
molecule	EC50 (µM)
CC(C)(C)Oc1ccc2nc(NC(=O)c3ccc4ccccc4c3)sc2c1	4.7
COc1ccc(-c2ccc3nc(NC(=O)c4ccc5ccccc5c4)sc3c2)c(OC)c1	0.6
O=C(Nc1ccc2nc(NC(=O)c3ccc4ccccc4c3)sc2c1)c1ccccc1	2.8

Read off the recorded EC50 for `O=C(Nc1nc2ccc3scnc3c2s1)c1ccc2cc(OCCN3CCOCC3)ccc2c1` 5

Read off the recorded EC50 for `O=C(Nc1nc2ccc(-c3nc4ccccc4o3)cc2s1)c1ccc2ccccc2c1` 4.6

Read off the recorded EC50 for `O=C(Nc1nc2ccc3scnc3c2o1)c1ccc2cc(OCCN3CCOCC3)ccc2c1` 5.6

Read off the recorded EC50 for Cc1nc2c(ccc3nc(NC(=O)c4ccc(S(=O)(=O)N5CC(C)OC(C)C5)cc4)oc32)s1 (centres unmarked) 0.9

Read off the recorded EC50 for `O=C(Nc1nc2ccc(NC(=O)c3ccco3)cc2s1)c1ccc2ccccc2c1` 5.5
